Test Name: Human HepG2 cell viability assay in 384 well format
Assay type: toxicity, cell-based
Parameters: dose 125 nL, time 70.5 hour; concentration not given beside the values
Experimental Setup: HepG2 cells, read-out: Inhibition
Each entry below carries its reported cytotoxicity at 70.5 h.
Write the number in % without appending the unit.

Below are worked cases with known answers.
{"columns": ["Compound", "cytotoxicity at 70.5 h [%]"],
 "data": [
  ["Cc1cc(Cc2ccccc2C)cc(C2CCCNC2)n1 (stereo unspecified)", -4.93],
  ["CCOC(=O)[C@]12CCCN(Cc3nccs3)C[C@H]1CN(C(C)C)C2", -3.32],
  ["CCN(CC(C)C#N)C(=O)CNc1ccc(F)c(C)c1 (stereo unspecified)", 0.826],
  ["NC(=O)C1CCCN1C(=O)c1cccc2c1OCO2 (stereo unspecified)", -1.57]
]}

Enquiry: Would you kindly share the measured cytotoxicity at 70.5 h for `CCOCCN(C)C(=O)Nc1cccc2c1CCN(CC)C2` ?
Return: 10.2

Enquiry: Endpoint output: cytotoxicity at 70.5 h of `CO[C@@H]1CCN(C(=O)Cc2cccc(F)c2)[C@H]1Cc1cccnc1` . Value?
Return: -3.88

###

Quick reference: cytotoxicity at 70.5 h of the listed items.
Test Name: Human HepG2 cell viability assay in 384 well format
Format: toxicity, cell-based
Design: dose 125 nL, time 70.5 hour; concentration not given beside the values
Experimental Setup: HepG2 cells, read-out: Inhibition
A number alone suffices; assume %.

{"columns": ["Compound", "Reported Result"],
 "data": [
  ["COc1cccc2c1OCC(CNC(=O)CNC(N)=O)C2 (configuration not stated)", -4.9],
  ["CC(C)Cc1cc(C(=O)NCCc2nnc(N)s2)n(C)n1", -23.5],
  ["Cn1cc(-c2nnn3c2COC(CNCC2CCOCC2)C3)cn1 (configuration not stated)", -7.48],
  ["CC(=O)N1Cc2ccccc2CC2(CCCCN2C)C1 (configuration not stated)", 21.1],
  ["CC(C)COC(C)C(=O)N1CCN(S(C)(=O)=O)CC1 (configuration not stated)", -0.767]
]}

Enquiry: I'd like to know its cytotoxicity at 70.5 h. The compound in question is `OCCNc1nccc(-c2c[nH]nc2-c2ccncc2)n1`
Return: -2.75

Enquiry: Item `Fc1ccc(CN2CCO[C@H]3[C@H](OCC4CC4)CC[C@@H]32)cc1` has what recorded cytotoxicity at 70.5 h?
Return: -4.72

Enquiry: Could you share which cytotoxicity at 70.5 h value was measured for `Cc1ccc2snc(C(=O)N3CCN(C(=O)NCCC(C)C)CC3)c2c1` ?
Return: -6.08

Enquiry: Report cytotoxicity at 70.5 h for CSc1ccc(C(=O)C2CCCN(C(=O)CCn3cncn3)C2)cc1 (configuration not stated) please.
Return: -16.6

Enquiry: # query: cytotoxicity at 70.5 h of entry `CC(C)(O)CN1CCN(C(=O)COCc2ccccc2Cl)CC1`
Return: -0.918

Enquiry: Which value of cytotoxicity at 70.5 h has been reported for CCCNC(=O)C1CCCN(c2ccc3nncn3n2)C1 (configuration not stated) in the records?
Return: -4.72

Enquiry: Reported cytotoxicity at 70.5 h, compound `Cc1cccc(CN2CCc3onc(CN(C)C)c3C2)n1` : ____
Return: 0.439

###

Consider the following compounds and their measured cytotoxicity at 70.5 h readings.
Test Name: Human HepG2 cell viability assay in 384 well format
Type: toxicity, cell-based
Set-up: dose 125 nL, time 70.5 hour; concentration not given beside the values
Experimental Setup: HepG2 cells, read-out: Inhibition
All answers are understood in %, so give the number only.

Enquiry: Entry `CC(C)C(=O)N1CC[C@@H]2[C@H](CC1)N(Cc1cccnc1)CCS2(=O)=O` has what cytotoxicity at 70.5 h?
Return: 2.07

Enquiry: # query: cytotoxicity at 70.5 h of entry `COc1ccc(-n2cnnc2SCCC#N)cn1`
Return: -4.7

###

Test Name: Human HepG2 cell viability assay in 384 well format
Type: toxicity, cell-based
Set-up: dose 125 nL, time 70.5 hour; concentration not given beside the values
Experimental Setup: HepG2 cells, read-out: Inhibition
Quantity: cytotoxicity at 70.5 h (%)
I only need the number, in %, no unit after it.

{"columns": ["Compound", "Unit Info", "cytotoxicity at 70.5 h"],
 "data": [
  ["CNS(=O)(=O)c1ccc(C(=O)N2CCCC2Cc2ccccc2)o1 (stereo unspecified)", "%", 1.08],
  ["CC(=O)Nc1ccc(CNC(=O)CNCc2nnc(C)o2)cc1", "%", 2.3],
  ["CCC(NC(=O)C1CCN(S(C)(=O)=O)CC1)c1ccc(OC)c(C)c1 (stereo unspecified)", "%", -9.2],
  ["CCN(CC)CCNC(=O)CCc1c(C)nn(-c2ccccc2Cl)c1C", "%", 16.4],
  ["CCOCC1CC2(CCN(C(=O)CC3=CCCCC3)CC2)CO1 (stereo unspecified)", "%", 1.88],
  ["Cc1nc(CN2CCN(C(=O)COc3c(C)ccc(C)c3C)CC2)no1", "%", -4.73],
  ["O[C@H]1Cc2ccccc2[C@H]1Nc1ncccc1C(F)(F)F", "%", -4.3],
  ["CCN1CCCC1CN(CCN(C)C)S(=O)(=O)c1ccc(C#N)cc1 (stereo unspecified)", "%", 2.57]
]}

Enquiry: Give the measured cytotoxicity at 70.5 h of `Cc1cnc(NC(=O)N2CCC(N3CCCCC3=O)CC2)s1` .
Return: -1.3

Enquiry: Quick one: cytotoxicity at 70.5 h of `O=C(O)C1(O)CCN(c2ccnc3c(C(F)(F)F)cccc23)CC1` ?
Return: -25.6

Enquiry: Entry `Cc1ccc(N2CCN(Cc3ccccc3)C3(CCNCC3)C2=O)cn1` : reported cytotoxicity at 70.5 h = ?
Return: -4.83

###

Test Name: Human HepG2 cell viability assay in 384 well format
Assay type: toxicity, cell-based
Set-up: dose 125 nL, time 70.5 hour; concentration not given beside the values
Experimental Setup: HepG2 cells, read-out: Inhibition
Quantity: cytotoxicity at 70.5 h (%)
Report the figure in % without appending any unit label.

Enquiry: Which value of cytotoxicity at 70.5 h has been reported for `CCSCCNc1nc(-c2ccccn2)nc2c1c(C)nn2C` in the records?
Return: 2.98

Enquiry: # lookup: cytotoxicity at 70.5 h of `Cc1nc(CN2CCC(Oc3ccc(F)cc3C)(C(=O)O)CC2)co1`
Return: -2.54

Enquiry: GET /values?readout=cytotoxicity at 70.5 h&item= Cc1nn(C)c(C)c1CC(=O)N1CCCC(n2ccnc2)C1 (configuration not stated)
Return: -3.37

Enquiry: // query cytotoxicity at 70.5 h value for entry `Cn1nnc2c(sc3nc(N4CCOCC4)c4c(c32)CCC4)c1=O`
Return: -16

Enquiry: Query: cytotoxicity at 70.5 h; subject: CC1CN(C(=O)NCc2ccn(C)c2)CCN1CC(F)(F)F (configuration not stated)
Return: 32.3

###

Test Name: Human HepG2 cell viability assay in 384 well format
Format: toxicity, cell-based
Design: dose 125 nL, time 70.5 hour; concentration not given beside the values
Experimental Setup: HepG2 cells, read-out: Inhibition
Quantity: cytotoxicity at 70.5 h (%)
Answer format: numeric, % implied, no suffix.

Below: 5 compounds and their reported cytotoxicity at 70.5 h.
{"columns": ["Compound", "cytotoxicity at 70.5 h, %"],
 "data": [
  ["CC1(C(=O)NCc2cc(F)cc(F)c2)CCOCC1", -6.71],
  ["Cc1cnn(CC2CCCCN2C(=O)Cc2cn3ccsc3n2)c1 (stereo not drawn)", 11.4],
  ["Cc1occc(=O)c1OCC(=O)N1CCN(c2cccc(Cl)c2)CC1", 2.39],
  ["Cc1nc(Nc2cnccn2)cc(C2CCN(c3ncccn3)C2)n1 (stereo not drawn)", -12.7],
  ["CN1[C@H](Cn2cncn2)C[C@@H]2CN(C3CCOCC3)CC[C@@H]21", 0.159]
]}

Enquiry: Which cytotoxicity at 70.5 h is reported for this compound? `CCCC(=O)N1CCN(c2cc(-n3cnc(C)c3C)nc(C)n2)CC1`
Return: -2.01

Enquiry: Could you share which cytotoxicity at 70.5 h value was measured for O=C(C1CC1)N1CCN(C(=O)C2CC(=O)N(c3ccccc3Br)C2)CC1 (stereo not drawn) ?
Return: 26.2

Enquiry: So what does the record say about cytotoxicity at 70.5 h for `O=C([C@@H]1CC[C@@H]2[C@@H](CCN2Cc2ccoc2)O1)N1CCCC1` ?
Return: -11.4

Enquiry: Requested read-out: cytotoxicity at 70.5 h. Entry: `COc1cccc(C(=O)N2CCN(C(=O)CCCc3cn[nH]c3)CC2)c1`
Return: -2.77

Enquiry: Need cytotoxicity at 70.5 h of CC(C)=CCCN1CCN(C)C2(CCC(=O)N(C)CC2)C1 (stereo not drawn) , thanks.
Return: -6.95

Enquiry: Need cytotoxicity at 70.5 h of CN(CCc1ccncc1)C(=O)C1CSCN1C(=O)CC(C)(C)C (stereo not drawn) , thanks.
Return: -12.5

Enquiry: Looking for the measured cytotoxicity at 70.5 h of `Cn1cc(CNc2nc3cc(Cl)ccc3n2C)cn1` , can you help?
Return: -0.411

Enquiry: I am curious: what cytotoxicity at 70.5 h value has been reported for `Cc1nc2c(c(N3CCC(O)(CN4CCCC4)CC3)n1)CCNCC2` ?
Return: -3.88
